Below, each entry is listed alongside its reported In vitro activity relative to native peptide (%), vs. GIP (cAMP EC50).
# TARGET OR TEST SYSTEM: T1, human GIP receptor (human, UniProt P48546 22-466)
# T1 sequence (looked up): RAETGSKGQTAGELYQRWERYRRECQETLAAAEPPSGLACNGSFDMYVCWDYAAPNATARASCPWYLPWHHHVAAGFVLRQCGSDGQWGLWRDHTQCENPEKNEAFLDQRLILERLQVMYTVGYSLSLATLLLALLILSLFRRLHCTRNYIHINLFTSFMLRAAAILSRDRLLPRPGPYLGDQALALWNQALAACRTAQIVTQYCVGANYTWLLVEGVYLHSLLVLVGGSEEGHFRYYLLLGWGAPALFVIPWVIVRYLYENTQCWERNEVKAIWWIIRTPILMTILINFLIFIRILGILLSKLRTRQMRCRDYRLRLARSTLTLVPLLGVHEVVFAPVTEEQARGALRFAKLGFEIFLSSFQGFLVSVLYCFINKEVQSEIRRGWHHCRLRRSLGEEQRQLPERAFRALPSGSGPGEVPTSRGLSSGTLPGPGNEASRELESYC
# ASSAY OVERVIEW: cell-based or functional assay
Positions of bridges follow the written chain, without caps; N, C: chain ends. Non-standard residues stand in square brackets, D forms with d. No end group written: not given here. Aib = CC(C)(N)C(=O)O

Past entries and their recorded results:
* H[Aib]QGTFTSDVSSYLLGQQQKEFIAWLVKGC [trigonal agonist of SEQ ID NO: 4] | < 0.1%
* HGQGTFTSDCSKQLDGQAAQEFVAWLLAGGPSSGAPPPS [trigonal agonist of SEQ ID NO: 44] | < 0.1%

In vitro activity relative to native peptide (%), vs. GIP (cAMP EC50) for Y[Aib]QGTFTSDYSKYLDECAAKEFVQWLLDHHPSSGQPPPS (bridge 16-20) [trigonal agonist of SEQ ID NO: 64] ?
92.9%

Data origin: patent US20230390362A1
